- System: 4 cell lines (A375, MDA-MB-231, PC-3, SK-OV-3)
- ASSAY: Growth inhibition with DFMO, average over 4 cell lines
- Type: cell-based
- EXPERIMENTAL CONDITIONS: Table 1; average EC50 for 4 cell lines, with DFMO; read-out: Ave EC50 value
pEC50: −log10 of the molar value.
READOUT KIND: pEC50

>>> reported_result("CCCC(=O)NCCC[C@@H](N)C(=O)NCCCNCCCCNCCCN [IB10]")
4.92
>>> reported_result("NCCCNCCCCNCCCNC(=O)[C@H](N)CCCNC(=O)C1CCCCC1 [IB32]")
5.44
